target: UniProt P04150; test: Transactivation activity at glucocorticoid receptor in human HepG2 cells assessed as induction of tyrosine amino transferase at 1 uM relative to control; format: cell-based
Sequence (P04150 whole entry): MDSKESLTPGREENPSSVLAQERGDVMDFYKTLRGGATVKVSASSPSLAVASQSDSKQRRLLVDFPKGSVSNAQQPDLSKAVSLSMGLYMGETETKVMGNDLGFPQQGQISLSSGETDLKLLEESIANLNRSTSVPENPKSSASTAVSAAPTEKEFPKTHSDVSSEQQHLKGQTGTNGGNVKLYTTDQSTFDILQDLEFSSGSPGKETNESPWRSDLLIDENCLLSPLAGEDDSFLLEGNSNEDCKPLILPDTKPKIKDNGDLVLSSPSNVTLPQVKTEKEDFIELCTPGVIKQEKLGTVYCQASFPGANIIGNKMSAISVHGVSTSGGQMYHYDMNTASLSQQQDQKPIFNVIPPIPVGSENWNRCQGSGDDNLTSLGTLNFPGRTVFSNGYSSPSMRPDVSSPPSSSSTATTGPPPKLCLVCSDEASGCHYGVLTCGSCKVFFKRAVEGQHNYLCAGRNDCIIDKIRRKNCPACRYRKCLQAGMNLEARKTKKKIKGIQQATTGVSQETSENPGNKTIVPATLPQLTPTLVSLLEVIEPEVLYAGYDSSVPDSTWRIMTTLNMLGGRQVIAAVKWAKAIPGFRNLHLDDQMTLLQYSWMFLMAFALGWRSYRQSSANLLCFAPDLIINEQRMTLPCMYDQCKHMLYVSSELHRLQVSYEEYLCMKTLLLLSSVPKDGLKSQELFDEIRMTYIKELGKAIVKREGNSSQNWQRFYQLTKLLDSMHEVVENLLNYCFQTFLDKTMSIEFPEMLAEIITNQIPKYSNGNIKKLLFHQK
QUANTITY_NAME: Emax (%)
Number in %, nothing else.

Some entries whose results are on file:
> print(dat)
                                        mol   target.entity  measured.result
1  C[C@]12CCC(=O)C=C1CC[C@@H]1[C@@H]2[C@@H](O)C[C@@]2(C)[C@H]1CC[C@]2(OC(=O)c1ccco1)C(=O)CSc1ccc2ccccc2n1  UniProt P04150               22
2  C[C@]12CCC(=O)C=C1CC[C@@H]1[C@@H]2[C@@H](O)C[C@@]2(C)[C@H]1CC[C@]2(O)C(=O)CSc1nc2ccccc2s1  UniProt P04150                5

Continue with the molecule presented below.
Query: Return reported Emax. Input molecule: C[C@]12CCC(=O)C=C1CC[C@@H]1[C@@H]2[C@@H](O)C[C@@]2(C)[C@H]1CC[C@]2(OC(=O)c1ccco1)C(=O)CSc1nc2ccccc2s1
Response: 5
